molecular target: mouse PDGF-β receptor tyrosine kinase (Mus musculus, UniProt P05622); construct: a fragment of DNA that codes for the intracellular tyrosine kinase domain; test: PDGF receptor tyrosine kinase assay; conditions: read-out: Inhibition of Protein Tyrosine Kinases, PDGF, IC50
Sequence (P05622 599-961 limits assumed): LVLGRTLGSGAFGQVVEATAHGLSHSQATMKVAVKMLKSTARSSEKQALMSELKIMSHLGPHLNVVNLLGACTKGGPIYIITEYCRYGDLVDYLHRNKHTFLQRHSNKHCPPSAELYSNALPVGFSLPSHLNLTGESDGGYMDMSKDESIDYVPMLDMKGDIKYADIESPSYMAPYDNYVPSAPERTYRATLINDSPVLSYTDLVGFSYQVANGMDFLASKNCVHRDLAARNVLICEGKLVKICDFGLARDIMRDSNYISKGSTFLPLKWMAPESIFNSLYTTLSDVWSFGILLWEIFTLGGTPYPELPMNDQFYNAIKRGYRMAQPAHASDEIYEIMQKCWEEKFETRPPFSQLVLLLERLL
Quick reference: IC50 of the listed items.
Expressed in µM, but write only the number.

Check out these entries, answers already filled in.
CCN(CC)CCCNc1ncc2cc(-c3c(Cl)cccc3Cl)c(NC(=O)NC(C)C)nc2n1 [Example 113] = 1.09
Nc1nc2nc(NCCCN3CCOCC3)ncc2cc1-c1c(Cl)cccc1Cl [Example 58] = 19
Nc1cc2nc(N)c(-c3ccccc3Cl)cc2cn1 [Example 17] = 27
COc1ccccc1-c1cc2cnc(N)nc2nc1NC(=O)NC(C)(C)C [Example 101] = 4.48

Consider now this further compound.
query: Provide measured IC50 value, entry: Cc1cccc(-c2cc3cnc(N)nc3nc2NC(=O)NC(C)(C)C)c1C [Example 93]
result: 6.05

====

# key: entry, value: pIC50
molecular target: human FGF-1 (flg) receptor tyrosine kinase (Homo sapiens, UniProt P11362); construct: a fragment of DNA that codes for the intracellular tyrosine kinase domain; assay: FGF receptor tyrosine kinase assay; conditions: read-out: Inhibition of Protein Tyrosine Kinases, FGF, IC50
Sequence (P11362 478-767 limits assumed): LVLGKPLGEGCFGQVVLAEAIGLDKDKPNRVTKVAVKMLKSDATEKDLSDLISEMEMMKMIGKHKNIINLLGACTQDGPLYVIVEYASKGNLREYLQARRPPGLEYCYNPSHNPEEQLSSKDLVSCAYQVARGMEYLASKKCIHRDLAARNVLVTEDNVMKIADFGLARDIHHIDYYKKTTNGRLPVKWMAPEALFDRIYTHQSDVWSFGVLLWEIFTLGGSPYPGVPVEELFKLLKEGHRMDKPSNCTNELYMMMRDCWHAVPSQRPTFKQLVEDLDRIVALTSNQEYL
Would you please state pIC50, meaning minus log10 of the concentration in mol/L, as a bare number?

Examples with their reported pIC50 follow.
Nc1ncc2cc(-c3cccc(Cl)c3Cl)c(N)nc2n1 = 5.70
CN(C)CCCN(C)c1ncc2cc(-c3c(Cl)cccc3Cl)c(NC(=O)NC(C)(C)C)nc2n1 = 5.71
Nc1cc2nc(N)c(-c3c(Cl)cccc3Cl)cc2cn1 = 5.92
CCCS(=O)(=O)Nc1nc2nc(N)ncc2cc1-c1c(Cl)cccc1Cl = 6.44
Cc1ccccc1-c1cc2cnc(N)nc2nc1NC(=O)NC(C)(C)C = 5.85

query: Check human FGF-1 (flg) receptor tyrosine kinase (Homo sapiens, UniProt P11362) data and give pIC50 for "COc1ccccc1NC(=O)Nc1nc2nc(NCCCN3CCN(C)CC3)ncc2cc1-c1c(Cl)cccc1Cl" .
result: 7.04

query: Provide measured pIC50 on human FGF-1 (flg) receptor tyrosine kinase (Homo sapiens, UniProt P11362) for "CN1CCN(CCCNc2ncc3cc(-c4c(Cl)cccc4Cl)c(NC(=O)NC45CC6CC(CC(C6)C4)C5)nc3n2)CC1" please.
result: 6.87

query: Jot down pIC50 (human FGF-1 (flg) receptor tyrosine kinase (Homo sapiens, UniProt P11362)) of "CC(C)(C)NC(=O)Nc1nc2nc(N)ncc2cc1-c1c(Cl)cccc1Cl" .
result: 6.85

====

Measured inhibition at 50 µM values are reported for all entries that follow.
target: Human EGF receptor tyrosine kinase (Homo sapiens, UniProt P00533); construct: isolated from A431 epidermoid carcinoma cells; endogenous in cells; host or cells: A431 epidermoid carcinoma cells (Triton lysate, wheat germ agglutinin eluate); assay: EGF receptor tyrosine kinase assay; assay type: biochemical; conditions: at 50 μM; read-out: Inhibition of Protein Tyrosine Kinases, EGF, % Inhibition
Sequence (P00533 25-1210): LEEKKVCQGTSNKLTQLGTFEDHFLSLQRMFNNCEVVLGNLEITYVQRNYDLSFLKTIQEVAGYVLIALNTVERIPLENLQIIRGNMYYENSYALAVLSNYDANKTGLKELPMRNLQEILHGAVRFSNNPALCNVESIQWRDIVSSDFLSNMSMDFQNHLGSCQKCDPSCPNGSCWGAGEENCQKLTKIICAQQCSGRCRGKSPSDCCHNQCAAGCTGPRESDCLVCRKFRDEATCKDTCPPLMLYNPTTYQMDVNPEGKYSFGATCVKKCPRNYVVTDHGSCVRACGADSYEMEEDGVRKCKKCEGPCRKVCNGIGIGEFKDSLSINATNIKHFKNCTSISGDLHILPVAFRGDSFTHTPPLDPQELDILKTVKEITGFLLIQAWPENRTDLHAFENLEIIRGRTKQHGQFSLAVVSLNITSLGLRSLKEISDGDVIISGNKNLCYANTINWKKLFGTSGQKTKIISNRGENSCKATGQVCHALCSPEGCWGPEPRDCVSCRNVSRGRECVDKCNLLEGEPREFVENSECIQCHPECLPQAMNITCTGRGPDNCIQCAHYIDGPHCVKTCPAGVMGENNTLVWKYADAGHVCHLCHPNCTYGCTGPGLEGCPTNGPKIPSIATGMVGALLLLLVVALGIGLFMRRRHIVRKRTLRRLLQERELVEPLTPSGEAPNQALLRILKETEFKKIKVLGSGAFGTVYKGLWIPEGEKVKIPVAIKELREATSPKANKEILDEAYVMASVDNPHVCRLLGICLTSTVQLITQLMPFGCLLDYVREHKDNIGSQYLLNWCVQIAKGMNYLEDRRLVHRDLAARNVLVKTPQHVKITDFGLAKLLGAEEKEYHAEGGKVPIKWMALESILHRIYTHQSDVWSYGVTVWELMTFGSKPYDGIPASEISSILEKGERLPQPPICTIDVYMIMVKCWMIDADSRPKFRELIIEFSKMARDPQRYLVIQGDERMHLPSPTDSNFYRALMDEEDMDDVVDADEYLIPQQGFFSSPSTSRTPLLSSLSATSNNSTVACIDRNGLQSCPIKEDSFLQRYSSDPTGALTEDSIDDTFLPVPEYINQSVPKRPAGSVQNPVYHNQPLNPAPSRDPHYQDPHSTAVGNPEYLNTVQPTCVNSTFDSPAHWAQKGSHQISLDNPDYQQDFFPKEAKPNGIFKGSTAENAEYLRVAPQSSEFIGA

Known results for compounds:
CC(C)(C)NC(=O)Nc1nc2nc(N)ncc2cc1-c1c(Br)cccc1Br = 34.4%
CNc1ncc2cc(-c3ccccc3)c(NC)nc2n1 = 26.1%
CC(=O)Nc1ncc2cc(-c3c(Cl)cccc3Cl)c(NC(C)=O)nc2n1 = 25.1%
CCCCNC(=O)Nc1ncc2cc(-c3c(Cl)cccc3Cl)c(NC(=O)NCCCC)nc2n1 = 57.5%

Alright, here's another compound for you.
query: State its inhibition at 50 µM for this compound: "Cc1ccccc1-c1cc2cnc(NC(=O)NC(C)(C)C)nc2nc1NC(=O)NC(C)(C)C"
result: 36.6%

====

target: C-src kinase (Homo sapiens); construct: made in house; host or cells: baculovirus-infected insect cells; assay: C-src kinase assay; type: biochemical; conditions: at 50 μM; read-out: Inhibition of Protein Tyrosine Kinases, C-src, % Inhibition
Sequence (P12931 whole entry): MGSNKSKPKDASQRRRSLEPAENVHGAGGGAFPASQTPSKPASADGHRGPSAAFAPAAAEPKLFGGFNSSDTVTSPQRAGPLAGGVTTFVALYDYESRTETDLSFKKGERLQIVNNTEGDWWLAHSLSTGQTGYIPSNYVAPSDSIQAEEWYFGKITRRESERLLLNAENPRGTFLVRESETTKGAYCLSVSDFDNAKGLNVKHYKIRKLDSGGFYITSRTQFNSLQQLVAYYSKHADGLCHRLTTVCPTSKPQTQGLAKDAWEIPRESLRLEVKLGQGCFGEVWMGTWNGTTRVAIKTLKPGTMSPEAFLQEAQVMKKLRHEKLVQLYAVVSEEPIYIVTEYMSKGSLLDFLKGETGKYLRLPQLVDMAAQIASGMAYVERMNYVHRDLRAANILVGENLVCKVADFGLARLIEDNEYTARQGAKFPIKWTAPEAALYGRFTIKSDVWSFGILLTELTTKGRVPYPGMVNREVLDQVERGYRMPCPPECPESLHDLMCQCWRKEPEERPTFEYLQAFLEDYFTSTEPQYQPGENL
Each entry gets -1 if its inhibition at 50 µM stays under 40%, and 1 if its inhibition at 50 µM is 40% or above.

// known answers, use as guide
Nc1ncc2cc(-c3cccnc3)c(N)nc2n1 [Example 107] = -1
CC(C)(C)NC(=O)Nc1nc2nc(N)ncc2cc1-c1ccncc1 [Example 110] = -1
CCN(CC)CCNc1ncc2cc(-c3c(Cl)cccc3Cl)c(N)nc2n1 [Example 65] = 1
Nc1ncc2cc(-c3ccccn3)c(N)nc2n1 [Example 111] = -1

Kindly review the next compound as well.
query: # bool: inhibition at 50 µM of Nc1ncc2cc(-c3ccccc3)c(N)nc2n1 [Example 81] >= 40%
result: 1

====

molecular target: mouse PDGF-β receptor tyrosine kinase (Mus musculus); construct: a fragment of DNA that codes for the intracellular tyrosine kinase domain; assay: PDGF receptor tyrosine kinase assay; conditions: read-out: Inhibition of Protein Tyrosine Kinases, PDGF, IC50
Use IC50 to assign classes; range list: low (below 800 nM), mid (800 nM to below 6000 nM), high (6000 nM or more)

CN1CCN(CCCNc2ncc3cc(-c4c(Cl)cccc4Cl)c(N)nc3n2)CC1 = high
CC(C)(C)NC(=O)Nc1nc2nc(NCCCN3CCOCC3)ncc2cc1-c1c(Cl)cccc1Cl = mid
CN(C)CCCN(C)c1ncc2cc(-c3c(Cl)cccc3Cl)c(NC(=O)NC(C)(C)C)nc2n1 = high
CN1CCN(CCCNc2ncc3cc(-c4c(Cl)cccc4Cl)c(NC(=O)NC45CC6CC(CC(C6)C4)C5)nc3n2)CC1 = mid
CN1CCN(CCCNc2ncc3cc(-c4c(Cl)cccc4Cl)c(NC(=O)Nc4ccc(Cl)cc4)nc3n2)CC1 = mid

query: Classify this molecule: "CCN(CC)CCNc1ncc2cc(-c3c(Cl)cccc3Cl)c(NC(=O)NC(C)(C)C)nc2n1"
result: mid

query: # classify by IC50 band: "CN1CCN(CCCNc2ncc3cc(-c4c(Cl)cccc4Cl)c(NC4=NCCCO4)nc3n2)CC1"
result: mid

query: Any idea which band "Nc1ncc2cc(-c3cccc(Cl)c3Cl)c(N)nc2n1" is in?
result: high

query: Place this molecule in its band: "CC(C)(C)NC(=O)Nc1nc2nc(N)ncc2cc1-c1cccnc1"
result: high

query: For the record "CCNC(=O)Nc1nc2nc(NCCCN(CC)CC)ncc2cc1-c1c(C)cccc1C" , report the class its IC50 corresponds to.
result: mid

query: Entry "CCN(CC)CCCCNc1ncc2cc(-c3c(Cl)cccc3Cl)c(N)nc2n1" belongs to which category?
result: high

query: The entry to classify is "COc1ccccc1NC(=O)Nc1nc2nc(NCCCN3CCN(C)CC3)ncc2cc1-c1c(Cl)cccc1Cl" ; which class holds it?
result: low

query: Lab note: which band did "Nc1ncc2cc(-c3ccccn3)c(N)nc2n1" land in?
result: high

query: Each molecule maps to one class by IC50. Which class for "CC(C)NC(=O)Nc1nc2nc(NCCCN3CCN(C)CC3)ncc2cc1-c1c(Cl)cccc1Cl" ?
result: low

query: Which category fits this record: "Nc1ncc2cc(-c3c(Cl)cccc3Cl)c(NC3=NCCO3)nc2n1"
result: high

query: Would you mind sorting "COc1cccc(NC(=O)Nc2nc3nc(NCCCN4CCN(C)CC4)ncc3cc2-c2c(Cl)cccc2Cl)c1" into the appropriate category?
result: low

query: Just checking, what class would you give "Cc1ccccc1-c1cc2cnc(N)nc2nc1N" here?
result: high

query: Could you place "CN1CCN(CCCNc2ncc3cc(-c4c(Cl)cccc4Cl)c(NC(=O)Nc4ccccc4)nc3n2)CC1" in its proper category? Many thanks.
result: low

query: Into which bin does this molecule go? "CN1CCN(CCCNc2ncc3cc(-c4c(Cl)cccc4Cl)c(NC(=O)Nc4ccc(Br)cc4)nc3n2)CC1"
result: mid

query: Quick check: band for "CN(C)CCCNc1ncc2cc(-c3c(Cl)cccc3Cl)c(NC(=O)NC(C)(C)C)nc2n1"
result: low

====

Molecular target: C-src kinase (Homo sapiens)
Construct: made in house; host or cells: baculovirus-infected insect cells
Experiment: C-src kinase assay
Assay type: biochemical
Conditions: read-out: Inhibition of Protein Tyrosine Kinases, C-src, IC50
Text: V-src and C-src Kinase Assays V-src or C-src kinase is purified from baculovirus infected insect cell lysates using an antipeptide monoclonal antibody directed against the N-terminal 2-17 amino acids. […] The filters are punched, counted in a liquid scintillation counter, and the data examined for inhibitory activity in comparison to a known inhibitor such as erbstatin. […]
readoutType: IC50 (µM)
Report as a plain number; the unit µM is understood.

The cases that follow already have their IC50 on record.
Cc1cccc(-c2cc3cnc(N)nc3nc2NC(=O)NC(C)(C)C)c1C = 4.17
CCN(CC)CCCCNc1ncc2cc(-c3c(Cl)cccc3Cl)c(NC(=O)NC(C)(C)C)nc2n1 = 0.029
CC(C)(C)NC(=O)Nc1nc2nc(N)ncc2cc1-c1c(Br)cccc1Br = 0.213
CCCNC(=O)Nc1nc2nc(N)ncc2cc1-c1c(Cl)cccc1Cl = 0.0395

query: For "Cc1ccccc1-c1cc2cnc(N)nc2nc1N" , write its IC50.
result: 1.63

query: Identify the reported IC50 for the following entry. "CCNC(=O)Nc1nc2nc(NCCCN3CCN(C)CC3)ncc2cc1-c1c(Cl)cccc1Cl"
result: 0.024

query: Identify measured IC50 corresponding to "CCN(CC)CCNc1ncc2cc(-c3c(Cl)cccc3Cl)c(NC(=O)NC(C)(C)C)nc2n1"
result: 3.42

query: Determine from records and report IC50 for "COc1ccccc1-c1cc2cnc(N)nc2nc1NC(=O)NC(C)(C)C"
result: 19.3

query: Return value of IC50 for input "CC(C)(C)NC(=O)Nc1nc2nc(N)ncc2cc1-c1c(Cl)ccc(Cl)c1Cl" , no commentary.
result: 1.41
